test: physchem
Type: physicochemical
conditionNotes: fassif
measurementLabel: solubility (µg/mL)
Answers are plain numbers, in µg/mL.

Note down solubility recorded for Cc1cc(-c2nnc(N)nc2-c2ccc(F)cc2)cc(Cl)n1
5.8

----------
test: physchem
Type: physicochemical
conditionNotes: pH 7, aqueous buffer
measurementLabel: solubility

Provide solubility value for the following compound: Cc1cc(-c2nnc(N)nc2-c2ccc(F)cc2)cc(Cl)n1
< 5 µg/mL

----------
test: physchem
Type: physicochemical
measurementLabel: pKa

// Input: Cc1cc(-c2nnc(N)nc2-c2ccc(F)cc2)cc(Cl)n1 . Output its pKa only.
1.78

----------
test: physchem
Assay type: physicochemical
conditionNotes: pH 1.2, simulated gastric fluid
measurementLabel: solubility
Please make sure the unit comes right after the number.

# return recorded solubility for input Cc1cc(-c2nnc(N)nc2-c2ccc(F)cc2)cc(Cl)n1
29.8 µg/mL
